# System: vancomycin resistant enterococci (VRE) E. faecalis
# measurementDescription: Broth microdilution MIC/MBC, VRE E. faecalis
# Assay type: cell-based
# assayContext: E. faecalis TX0104 HM-201; read-out: MIC

{"columns": ["compound", "MIC (µM)"],
 "data": [
  ["O=C(O)[C@@H](Cc1ccccc1)N1C(=O)/C(=C/c2cccc(Oc3ccc(F)cc3)c2)SC1=S [Rh 4]", 32],
  ["O=C(O)[C@@H](Cc1ccccc1)N1C(=O)/C(=C/c2cccc(Cc3ccccc3)c2)SC1=S [Rh 7]", 16],
  ["O=C(O)[C@H](Cc1ccccc1)N1C(=O)/C(=C/c2cccc(Oc3ccc(Cl)c(Cl)c3)c2)SC1=S [Rh 1]", 8],
  ["O=C(O)[C@H](Cc1ccccc1)N1C(=O)/C(=C/c2cccc(-c3ccc(Cl)c(Cl)c3)c2)SC1=S [Rh 2]", 4],
  ["O=C(O)[C@H](Cc1ccccc1)N1C(=O)/C(=C/c2cccc(OC/C=C/c3ccc(Cl)c(Cl)c3)c2)SC1=S [Rh 6]", 8],
  ["CC(=O)NC[C@H]1CN(c2ccc(N3CCOCC3)c(F)c2)C(=O)O1 [Linezolid, linezolid, reference compound]", 2],
  ["O=C(O)[C@H](Cc1ccccc1)N1C(=O)/C(=C/c2cccc(Cc3ccc(Cl)c(Cl)c3)c2)SC1=S [Rh 3]", 4],
  ["O=C(O)[C@H](Cc1ccccc1)N1C(=O)/C(=C/c2cccc(-c3ccccc3)c2)SC1=S [Rh 5]", 16]
]}

###

# System: Candida albicans
# measurementDescription: MIC against Candida albicans
# Assay type: cell-based
# assayContext: C. albicans NR 29449, unit from abstract, table prints none, read-out: MIC
Here the recorded MIC is given for each entry.
quantityName: MIC

{"columns": ["compound", "quantityName", "valueMeasured"],
 "data": [
  ["O=C(O)[C@@H](Cc1ccccc1)N1C(=O)/C(=C/c2cccc(Oc3ccc(F)cc3)c2)SC1=S [Rh 4]", "MIC", "> 64 µM"],
  ["O=C(O)[C@H](Cc1ccccc1)N1C(=O)/C(=C/c2cccc(Oc3ccc(Cl)c(Cl)c3)c2)SC1=S [Rh 1]", "MIC", "> 64 µM"],
  ["OC(Cn1cncn1)(Cn1cncn1)c1ccc(F)cc1F [Fluconazole, fluconazole, reference compound]", "MIC", "< 0.5 µM"]
]}

###

# System: Candida albicans
# measurementDescription: MIC against Candida albicans
# Format: cell-based
# assayContext: C. albicans NR 29435, unit from abstract, table prints none, read-out: MIC
Here the recorded MIC is given for each entry.
quantityName: MIC

{"columns": ["molecule", "targetSystem", "valueMeasured"],
 "data": [
  ["O=C(O)[C@H](Cc1ccccc1)N1C(=O)/C(=C/c2cccc(-c3ccc(Cl)c(Cl)c3)c2)SC1=S", "Candida albicans", "> 64 µM"],
  ["OC(Cn1cncn1)(Cn1cncn1)c1ccc(F)cc1F [Fluconazole, fluconazole, reference compound]", "Candida albicans", "< 0.5 µM"],
  ["O=C(O)[C@H](Cc1ccccc1)N1C(=O)/C(=C/c2cccc(-c3ccccc3)c2)SC1=S", "Candida albicans", "> 64 µM"],
  ["O=C(O)[C@H](Cc1ccccc1)N1C(=O)/C(=C/c2cccc(OC/C=C/c3ccc(Cl)c(Cl)c3)c2)SC1=S", "Candida albicans", "> 64 µM"],
  ["O=C(O)[C@H](Cc1ccccc1)N1C(=O)/C(=C/c2cccc(Cc3ccc(Cl)c(Cl)c3)c2)SC1=S", "Candida albicans", "> 64 µM"],
  ["C[C@@H]1[C@H](O)[C@@H](C)/C=C/C=C/C=C/C=C/C=C/C=C/C=C/[C@H](O[C@@H]2O[C@H](C)[C@@H](O)[C@H](N)[C@@H]2O)C[C@@H]2O[C@](O)(C[C@@H](O)C[C@@H](O)[C@H](O)CC[C@@H](O)C[C@@H](O)CC(=O)O[C@H]1C)C[C@H](O)[C@H]2C(=O)O [Amphotericin B, amphotericin B, reference compound]", "Candida albicans", "1 µM"]
]}

The origin of these recorded values is paper PMC5053523.
